molecular target: HLA-A*02:01; experiment: IEDB peptide-MHC binding, cellular MHC/competitive/fluorescence; bounds were set here for any values at or beyond the usual limits of such assays; conditions: source organism: Homo sapiens
Endpoint Label: IC50

* SPSVDKARAEL | ≥ 200 µM

====

target: HLA-A*02:06; assay: IEDB peptide-MHC binding, purified MHC/competitive/radioactivity; filed as Kd, often an IC50 or EC50 that approximates it; bounds were set here for any values at or beyond the usual limits of such assays; conditions: source organism: Mammarenavirus whitewaterense
Endpoint Label: Kd (µM)

* LDFAKVASV | 10.6

====

biological target: HLA-A*30:02; assay: IEDB peptide-MHC binding, purified MHC/competitive/fluorescence; filed as Kd, often an IC50 or EC50 that approximates it; bounds were set here for any values at or beyond the usual limits of such assays; settings: source organism: Cryptosporidium parvum Iowa II
Endpoint Label: Kd

• FTWQHNYYL = ≥ 5 µM

This collection of values is drawn from the Immune Epitope Database (IEDB).
